Tested on: Pyricularia grisea
Experiment: microbe, parasite or virus in culture
Assay type: functional
Conditions: P-2
Answer each item with its documented inhibition at 1 µg/mL.
Use % as the unit, but write only the number.

# get_value(readout='inhibition at 1 µg/mL', item= CCOP(=O)(Sc1ccccc1)Sc1ccccc1 )
44.8

# get_value(readout='inhibition at 1 µg/mL', item= CN(CC[C@H](N)CC(=O)N[C@H]1C=C[C@H](n2ccc(N)nc2=O)O[C@@H]1C(=O)O)C(=N)N )
25.2

# get_value(readout='inhibition at 1 µg/mL', item= Cc1cccc2sc3nncn3c12 )
0

# get_value(readout='inhibition at 1 µg/mL', item= Cc1cccc(NC(=O)Cn2c(COc3c(C)cc(Br)cc3C)noc2=O)c1 )
0
